Origin of the recorded values: patent US8946142B2

Catalogue of Emax readings, one per entry.
biological target: human AT1R (Homo sapiens, UniProt P30556); experiment: beta-arrestin2 recruitment assay (PathHunter), human AT1R; format: cell-based; conditions: 1 h, read-out: Span (relative to hAngII)
Sequence (P30556 whole entry): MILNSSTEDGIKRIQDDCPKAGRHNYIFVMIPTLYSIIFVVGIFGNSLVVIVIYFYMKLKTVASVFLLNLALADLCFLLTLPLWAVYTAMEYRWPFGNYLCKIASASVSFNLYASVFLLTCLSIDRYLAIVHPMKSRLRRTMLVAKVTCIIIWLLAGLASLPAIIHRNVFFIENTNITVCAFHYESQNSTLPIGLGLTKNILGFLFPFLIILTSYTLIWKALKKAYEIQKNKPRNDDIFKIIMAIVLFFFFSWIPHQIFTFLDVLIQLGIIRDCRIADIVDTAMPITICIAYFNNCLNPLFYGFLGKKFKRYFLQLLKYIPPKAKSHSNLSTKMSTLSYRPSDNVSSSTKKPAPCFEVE
Where a SMILES comes first, the peptide text is derived from it. [ ]: non-standard residue; d: D form. Tle = CC(C)(C)[C@H](N)C(=O)O; Ac6c = NC1(C(=O)O)CCCCC1; Ac5c = NC1(C(=O)O)CCCC1; Sar = CNCC(=O)O

Consider the following illustrative entries.
1) CC[C@H](C)[C@H](NC(=O)[C@@H]1CCCN1C(=O)[C@H](Cc1c[nH]cn1)NC(=O)C1(NC(=O)[C@H](Cc2ccc(O)cc2)NC(=O)[C@@H](NC(=O)[C@H](CCCNC(=N)N)NC(=O)CNC)C(C)C)CCCCC1)C(=O)O [SEQ ID NO: 11, Sar-Arg-Val-Tyr-cyHex-His-Pro-Ile] (H-[Sar]RVY[Ac6c]HPI-OH)
< 101%
2) CNCC(=O)N[C@@H](CCCNC(=N)N)C(=O)N[C@H](C(=O)N[C@@H](Cc1ccc(O)cc1)C(=O)NC1(C(=O)N[C@@H](Cc2c[nH]cn2)C(=O)N2CCC[C@H]2C(=O)N[C@H](C(=O)O)C(C)(C)C)CCCCC1)C(C)C [SEQ ID NO: 56, Sar-Arg-Val-Tyr-cyHex-His-Pro-AA02] (H-[Sar]RVY[Ac6c]HP[Tle]-OH)
< 101%

Kindly review the next compound as well.
The value of Emax measured for the compound CC[C@H](C)[C@H](NC(=O)[C@@H]1CCCN1C(=O)[C@H](Cc1c[nH]cn1)NC(=O)C1(NC(=O)[C@H](Cc2ccc(O)cc2)NC(=O)[C@@H](NC(=O)[C@H](CCCNC(=N)N)NC(=O)CNC)C(C)C)CCCC1)C(=O)O [SEQ ID NO: 18, Sar-Arg-Val-Tyr-cyPen-His-Pro-Ile] (H-[Sar]RVY[Ac5c]HPI-OH) turned out to be < 101%
